# STUDY TARGET: T1, cynomolgus monkey IL-33 expressed with a C-terminal hexahistidine tag (cynomolgus monkey)
# T1 chain: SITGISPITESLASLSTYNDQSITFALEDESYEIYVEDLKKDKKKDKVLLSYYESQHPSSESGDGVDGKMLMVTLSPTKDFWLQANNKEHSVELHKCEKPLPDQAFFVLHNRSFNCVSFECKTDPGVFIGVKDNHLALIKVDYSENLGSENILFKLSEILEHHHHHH
# ASSAY OVERVIEW: cell-based or functional assay
READOUT: IC50, inhibition of 5 pM MfIL-33-6His activation of HEK293/hST2/NFkB-luciferase cells (M)
All answers are understood in M, so give the number only.

Consider the reported IC50, inhibition of 5 pM MfIL-33-6His activation of HEK293/hST2/NFkB-luciferase cells for these binders:
H4H9659P (antibody, human IgG4, V domains shown, Human IgG4 Fc (H4H)) VH: QVQLVQSGAEVKKPGASVKVSCKASGYTFNSYGISWVRQAPGQGLEWMGWISSHNGNSHYVQKFQGRVSMTTDTSTSTAYMELRSLRSDDTAVYYCARHSYTTSWYGGFDYWGQGTLVTVSS VL: DIQMTQSPSSVSASVGDRVTITCRASQGFSSWLAWYQQKPGKAPQLLIYAASSLQSGVPSRFSGSGSGSDFTLTISSLQPEDFATYYCQQANSFPLTFGGGTKVEIK | 3.3e-09
H4H9662P (antibody, V domains shown, Human IgG4 Fc (H4H)) VH: EVQLVESGGGLVQPGGSLRLSCAASGFTFSSYALTWVRQAPGKGLEWVSFISGSGGRPFYADSVKGRFTISRDNSKNMLYLQMNSLRAEDTAIYYCAKSLYTTSWYGGFDSWGQGTLVTVSS VL: DIQMTQSPSSVSASVGDRVTITCRASQGVVSWLAWYQQKPGKAPKLLIYAASSLQSGVPSRFSGSGSGTDFTLTISSLQPEDFATYYCQQSNSFPFTLGPGTKVDIK | 1.5e-09
H1M9559N (antibody, mouse IgG1, V domains shown, Human variable domains, mouse IgG1 Fc (H1M)) VH: QVQLVESGGGVVQPGRSLRLSCAASGFTFSSYGMHWVRQAPGKGLEWVAVIWYDGRNKYYTDSVKGRFTISRDNSKNTLYLQMDSLRAEDTAVYYCARERYISSYYGGFDPWGQGALVTVSS VL: DIQMTQSPSSVSASVGDRVTITCRASQGISSWLAWYQQKPGKAPKVLIYAASSLQSGVPSRFSGSGSGTDFTLTISSLQPEDFATYYCQQANSFPFTFGPGTKLDIK | 4.9e-08
H4H9664P (antibody, human IgG4, V domains shown, Human IgG4 Fc (H4H)) VH: QVQLVESGGGVVQPGRSLRLSCAASGFTFSSYGLHWVRQSPGKGLEWVALISYDGSNKYYADSVKGRFTISRDNSKNTLYLQMNSLRPEDTAGYFCAKSLYTTSWYGGFDYWGQGTLVTVSS VL: DIQMTQSPSSVSASVGDRVTITCRASQGIRSWLAWYQQKPGKAPNLLIYAASSLQSGVPSRFSGSGSGTDFTLTISSLQPEDFATYYCQQANSFPPTFGPGTKVDIK | 2.6e-08
H4H9672P (antibody, human IgG4, V domains shown, Human IgG4 Fc (H4H)) VH: EVQLVESGGGLVQPGGSLRLSCAASGFTLRSYVMYWVRQGPGKGLEGVSGISGSSGGTYYTDSVKGRFTISRDNSKNTLFLQMNSLRAEDTAVYFCARSVYSTTWYGGFQHWGQGTLVTVSS VL: DIQMTQSPSSVSVSVGDRVTITCRASQVISSWLAWYQLKPGKAPKLLIYAASSLQSGVPSRFSGSGSGTDFTLTISGLQPEDFAVYYCQQTNSFPLTFGGGTKVEIK | 2e-08
H4H9663P (antibody, human IgG4, V domains shown, Human IgG4 Fc (H4H)) VH: QVQLVQSGAEVKKPGASVKVSCKASGYTFTGHYMYWMRQAPGQGLEWMGWINPNSGGTNYAQKFQDRVTMTRDTSISTAYMELSRLRSDDTAVYYCARGRYGSSWYGGFEYWGQGTLVTVSS VL: DIQMTQSPSSVSASVGDRVTITCRASQGITSWLAWYQQKPGKAPNLLIYAAASLQSGVPSRFSGSGSGTDFTLTISSLQPEDFTTYYCQQAYSLPLTFGGGTKVEIK | 2.7e-09
H4H9633P (antibody, human IgG4, V domains shown, Human IgG4 Fc (H4H)) VH: EVQLVESGGGLVQPGGSLRLSCAASGFTFSSYVMSWVRQAPGKGLEWVSSISGNGGSTNYADSVKGRFTISRDNSKNTLFLEMNSLRAEDTAVYYCAKSLGTTTTFLGFDYWGQGTLVTVSS VL: DIQMTQSPSSVSASVGDRVTITCRASQGISSWLAWYQQKPGKAPKLLIYAASSLQSGVPSRFSGSGSGTYFTLTISSLQPEDFATYYCQQANSFPLTFGGGTKVEIK | 1.3e-07
H4H9666P (antibody, human IgG4, V domains shown, Human IgG4 Fc (H4H)) VH: QVQLVQSGAEVKKPGASVKVSCKASGYTFTSYGISWVRQAPGQGLEWMGWIRAYNGYTNYAQKFQGRVTMTTDTSTNTAYMELRTLNSDDTAVYYCARDRYSGSFHGNFDYWGQGTLVTVSS VL: DIQMTQSPSSVSASVGDRVTITCRASQGIFSWLAWYQQKPGKAPKVLIYAASNLESGVPSRFSGSGSGTDFTLTISSLQPEDFATYYCQQANSLPLTFGGGTKVEIK | 7.8e-08

// sample H4H9675P (antibody, human IgG4, V domains shown, Human IgG4 Fc (H4H)) VH: EVQLVESGGNLEQPGGSLRLSCTASGFTFSRSAMNWVRRAPGKGLEWVSGISGSGGRTYYADSVKGRFTISRDNSKNTLYLQMNSLSAEDTAAYYCAKDSYTTSWYGGMDVWGHGTTVTVSS VL: DIQMTQSPSSVSASVGDRVTITCRASQGIFSWLAWYQQKPGKAPKLLIYAASSLQSGVPSRFSGSGSGTDFTLTISSLQPEDFAIYYCQQANSVPITFGQGTRLEIK , its IC50, inhibition of 5 pM MfIL-33-6His activation of HEK293/hST2/NFkB-luciferase cells was 4.1e-09

// sample H4H9667P (antibody, human IgG4, V domains shown, Human IgG4 Fc (H4H)) VH: EVQLVESGGGLVQPGGSLRLSCAASGFTFSTYSMHWVRQAPGKGLEYVSTINNNGDTTYYADSVKGRFTISRDNSKNTLYLQLGSLRPEDMAVYYCARQTYTSSWYGGFDSWGQGTLVTVSS VL: DIQMTQSPSSVSASVGDRVTITCRASQGITSWLAWYQQKPGKAPKLLIYAASNLQSGVPSRFSGSGSGTDFTLTITSLQPEDFATYYCQQANSLPFTFGPGTKVDIK , its IC50, inhibition of 5 pM MfIL-33-6His activation of HEK293/hST2/NFkB-luciferase cells was 1.2e-08

// sample H4H9629P (antibody, human IgG4, V domains shown, Human IgG4 Fc (H4H)) VH: EVQLVESGGGLVQPGGSLRLSCAASGFTFRSFAMSWVRQAPGKGLELVSDLRTSGGSTYYADSVKGRLTISRDNSKNTLYLQMNSLRAEDTAVYYCAKSHYSTSWFGGFDYWGQGTLVTVSS VL: DIQMTQSPSSVSASVGDRVTITCRASQGFSSWLAWYQQKPGKAPKLLIYAASSLQSGVPSRFSGSGSGTDFTLTITNLQPEDFATYYCQQANSFPLTFGGGTKVEIK , its IC50, inhibition of 5 pM MfIL-33-6His activation of HEK293/hST2/NFkB-luciferase cells was 5.5e-08
